# conditions-used: in ethyl acetate, 313.15 K
measurement-type: solubility (mole fraction)

Q: Request the reported solubility (mole fraction) associated with O=Cc1cc(Br)c(O)c(Br)c1
A: 0.015

* * *

# conditions-used: in ethanol, 288.15 K
measurement-type: solubility (mole fraction)
Enter the number alone.

Q: Request the reported solubility (mole fraction) associated with O=Cc1cc(Br)c(O)c(Br)c1
A: 0.00358

* * *

# conditions-used: in n-butanol, 318.15 K
measurement-type: solubility (mole fraction)
Enter the number alone.

Q: Request the reported solubility (mole fraction) associated with O=Cc1cc(Br)c(O)c(Br)c1
A: 0.0128

* * *

# conditions-used: in n-propanol, 318.15 K
measurement-type: solubility (mole fraction)
Enter the number alone.

Q: Request the reported solubility (mole fraction) associated with O=Cc1cc(Br)c(O)c(Br)c1
A: 0.0103
